These measurements were taken from the Deep4Chem optical property database.

test: solvent given as SMILES; settings: in ClC(Cl)Cl
metric: fluorescence lifetime (ns)

Previously resolved entries follow.
COc1ccccc1-c1c(-c2ccccc2O)nc(-c2ccc(C(F)(F)F)cc2)n1-c1ccc(C)cc1    0.96
Cc1ccc(C2=C3C=CC(Cl)=[N+]3[B-](F)(F)n3c(Cl)ccc32)cc1    3.66

1. C(#Cc1ccccc1)C(C#Cc1ccccc1)=Cc1ccc(-c2ccc(C=C(C#Cc3ccccc3)C#Cc3ccccc3)cc2)cc1
2. Cc1ccc(-c2oc3cccc4c5c(-c6ccc(C)cc6)/c(=N/S(=O)(=O)C(F)(F)F)oc6cccc(c2c34)c65)cc1
Just curious, which one has the larger fluorescence lifetime reading, 1 or 2 ? # reply format: chosen label
2
